test: Cytotoxicity against human A549 cells assessed as growth inhibition at 30 ug/ml after 48 hrs by MTT assay relative to control; format: cell-based; conditions: read-out: GI

test-smiles | inhibition at 48 h, 30 ug/ml, %
COc1ccc2nc(Cl)c(/C=C3\CN(C)C/C(=C\c4cc5cc(OC)ccc5nc4Cl)C3=O)cc2c1 | 0
Cc1ccc2cc(/C=C3\CNC/C(=C\c4cc5ccc(C)cc5nc4Cl)C3=O)c(Cl)nc2c1 | 0
CN1C/C(=C\c2cc3ccccc3nc2Cl)C(=O)/C(=C/c2cc3ccccc3nc2Cl)C1 | -16.9
O=C1/C(=C/c2cc3cc(Cl)ccc3nc2Cl)CNC/C1=C\c1cc2cc(Cl)ccc2nc1Cl | -12
COc1ccc2nc(Cl)c(/C=C3\CNC/C(=C\c4cc5cc(OC)ccc5nc4Cl)C3=O)cc2c1 | 0
Cc1cccc2cc(/C=C3\CNC/C(=C\c4cc5cccc(C)c5nc4Cl)C3=O)c(Cl)nc12 | -13.9
CN1C/C(=C\c2cc3cc(Cl)ccc3nc2Cl)C(=O)/C(=C/c2cc3cc(Cl)ccc3nc2Cl)C1 | 48.9
CN1C/C(=C\c2cc3cc(F)ccc3nc2Cl)C(=O)/C(=C/c2cc3cc(F)ccc3nc2Cl)C1 | 0
Cc1ccc2cc(/C=C3\CN(C)C/C(=C\c4cc5ccc(C)cc5nc4Cl)C3=O)c(Cl)nc2c1 | 45.7
COc1ccc2cc(/C=C3\CNC/C(=C\c4cc5ccc(OC)cc5nc4Cl)C3=O)c(Cl)nc2c1 | 36.3
Cc1cccc2cc(/C=C3\CN(C)C/C(=C\c4cc5cccc(C)c5nc4Cl)C3=O)c(Cl)nc12 | -20.4
O=C1/C(=C/c2cc3cc(F)ccc3nc2Cl)CNC/C1=C\c1cc2cc(F)ccc2nc1Cl | 0
O=C1/C(=C/c2cc3ccccc3nc2Cl)CNC/C1=C\c1cc2ccccc2nc1Cl | -14.1
COc1ccc2cc(/C=C3\CN(C)C/C(=C\c4cc5ccc(OC)cc5nc4Cl)C3=O)c(Cl)nc2c1 | 0
Cc1ccc2nc(Cl)c(/C=C3\CNC/C(=C\c4cc5cc(C)ccc5nc4Cl)C3=O)cc2c1 | 0
Cc1ccc2nc(Cl)c(/C=C3\CN(C)C/C(=C\c4cc5cc(C)ccc5nc4Cl)C3=O)cc2c1 | 0
